Cited source: patent US20220194999A1

Biological target: T1, HLA-A*02:01 class I complex (conditional p*HLA*02:01, biotinylated heavy chain with beta2-microglobulin) (human, biotinylated heavy chain)
T1 construct: UV-labile peptide p* is cleaved and exchanged for the test peptide; also called HLA 2.1
Assay: UV peptide exchange, HLA class I ELISA, % of Pos peptide
Listed next: entries and their corresponding average relative binding (%).

Known average relative binding (%) results, listed for orientation:
RLIHRDLAA (also called M240) [ERBB2.V842I mutant peptide RLIHRDLAA] = < 15%
CYLYYYSYLV (also called M102) [PTEN R173C6 mimic peptide CYLYYYSYLV] = < 15%
YMDCGIHSV (also called M023) [CTNNB1_S33C6 mimic peptide YMDCGIHSV] = > 100%
MIFSKRHWA (also called M010) [CIC.R215W mutant peptide MIFSKRHWA] = < 15%
GLAPPQLLI (also called M140) [TP53.H193L mutant peptide GLAPPQLLI] = < 15%

Per the record, YQGSYGFLI (also called M201) [TP53_R110L3 mimic peptide YQGSYGFLI] has average relative binding (%) of < 15%

Measured average relative binding (%) of LVVVGAAGV (also called M050) [KRAS.G12A mutant peptide LVVVGAAGV] : < 15%

Lab note: measured average relative binding (%) of NMDEYVHNT (also called M110) [SF3B1.R625H mutant peptide NMDEYVHNT] was < 15%

GET /value?item= YLDSGIHFV (also called M032) [CTNNB1_S37F5 mimic peptide YLDSGIHFV] &field=average relative binding (%) returns > 100%
